These entries and their values trace back to patent US20150152192A1.

I'd appreciate it if you could supply kon values for the items below.
- TEST TARGET: T1, recombinant hAng2 (C-His, R&D Systems) (human, UniProt O15123 19-496)
- T1 construct: Bought protein captured on an anti-His chip; not shown: C-terminal His tag
- T1 sequence: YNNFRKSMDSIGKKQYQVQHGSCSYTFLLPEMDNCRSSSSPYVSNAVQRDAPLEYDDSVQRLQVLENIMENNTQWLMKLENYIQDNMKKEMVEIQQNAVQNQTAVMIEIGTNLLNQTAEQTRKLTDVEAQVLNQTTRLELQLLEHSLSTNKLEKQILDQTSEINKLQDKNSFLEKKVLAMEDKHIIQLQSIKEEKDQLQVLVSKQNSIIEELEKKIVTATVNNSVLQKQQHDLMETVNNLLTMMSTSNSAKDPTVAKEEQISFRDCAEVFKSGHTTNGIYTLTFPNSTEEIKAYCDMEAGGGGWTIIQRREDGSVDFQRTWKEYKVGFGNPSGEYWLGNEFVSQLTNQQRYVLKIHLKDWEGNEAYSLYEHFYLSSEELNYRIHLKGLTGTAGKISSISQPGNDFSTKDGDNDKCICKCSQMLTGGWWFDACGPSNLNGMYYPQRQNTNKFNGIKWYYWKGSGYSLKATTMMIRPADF
- ASSAY: SPR, BIAcore T100, hAng2-His captured on anti-His CM5 chip, antibody flowed
Answers are plain numbers, in M⁻¹ s⁻¹.

binder="SAIT-ANG-2-AB-4-F5 (IgG form) (antibody, V domains shown, Intact human antibody with human IgG1 constant region) VH: EVQLLESGGGLVQPGGSLRLSCAASGFTFSDYDMSWVRQAPGKGLEWVSSISHGDSNKYYADSVKGRFTISRDNSKNTLYLQMNSLRAEDTAVYYCAKSSGIQESPPTYYYYGMDVWGQGTLVTVSS VL: QSVLTQPPSASGTPGQRVTISCSGSSSNIGSNAVNWYQQLPGTAPKLLIYADSNRPSGVPDRFSGSKSGTSASLAISGLRSEDEADYYCGSWDYSLSGYVFGGGTKLTVLG" unit_name="M⁻¹ s⁻¹" observed=1.9e+06

Turning now to a further binder:
For this binder ( SAIT-ANG-2-AB-7-C9 (IgG form) (antibody, V domains shown, Intact human antibody with human IgG1 constant region) VH: EVQLLESGGGLVQPGGSLRLSCAASGFTFSNYAMSWVRQAPGKGLEWVSAISSGGGNIYYADSVKGRFTISRDNSKNTLYLQMNSLRAEDTAVYYCAKSGIQPSPPSMSSAYAMDVWGQGTLVTVSS VL: QSVLTQPPSASGTPGQRVTISCSGSSSNIGNNDVYWYQQLPGTAPKLLIYANSHRPSGVPDRFSGSKSGTSASLAISGLRSEDEADYYCGTWDYSLSGYVFGGGTKLTVLG ), measured kon is 1.78e+06
